experimentNotes: Pharmacokinetics in nude mouse (IV and PO)
Type: in vivo
measurementSetup: female, BALB/c nude, plasma, PO, 100 mg/kg, read-out: F (absolute bioavailability)
observedProperty: bioavailability
Give me the value, and tack the unit on after it.

Query: Item CCN1CCN(Cc2cnc(Nc3cc(-c4cc(F)c5nc(C)n(C(C)C)c5c4)c(F)cn3)nc2)CC1 : provide bioavailability
Reply: 77.9%

---

experimentNotes: In vivo assay for blood brain barrier permeability in rat
measurementSetup: male, SD, 30 mg/kg, PO, dose 30, cerebrospinal fluid
observedProperty: Cmax (ng/mL)
# number only, unit ng/mL dropped from output

Query: Output measured Cmax for this item: CCN1CCN(Cc2cnc(Nc3cc(-c4cc(F)c5nc(C)n(C(C)C)c5c4)c(F)cn3)nc2)CC1
Reply: 106

Query: Identify measured Cmax associated with CCN1CCN(Cc2ccc(Nc3ncc(F)c(-c4cc(F)c5nc(C)n(C(C)C)c5c4)n3)nc2)CC1 [LY2835219, reference compound]
Reply: 11.8
